TARGET_UNDER_TEST: UniProtKB P15907
ASSAY_NAME: Inhibition of human recombinant ST6Gal-1 assessed as trisaccharide formation using CMP-Neu5Ac and p-nitrophenyl LacNAc as donar and acceptor at 10 uM by RP-HPLC analysis
METRIC_NAME: inhibition
Put your answer as a value accompanied by its unit after it.

Could you please provide reported inhibition for Nc1ccn([C@@H]2O[C@H](COP(=O)(O)OC(C3CCCC3)P(=O)(O)O)[C@@H](O)[C@H]2O)c(=O)n1 (stereo in doubt; 2l) ? Thanks!
12.8%

Could you please provide reported inhibition for CC(=O)N[C@H]1C[C@H](C(OP(=O)(O)OC[C@H]2O[C@@H](n3ccc(N)nc3=O)[C@H](O)[C@@H]2O)P(=O)(O)O)C[C@H]1OCc1ccccc1 (stereo in doubt; 5Sl) ? Thanks!
75.3%

Could you please provide reported inhibition for CC(=O)N[C@H]1C[C@@H](C(OP(=O)(O)OC[C@H]2O[C@@H](n3ccc(N)nc3=O)[C@H](O)[C@@H]2O)P(=O)(O)O)C[C@H]1OCc1ccccc1 (stereo in doubt; 5Rl) ? Thanks!
22.1%

Could you please provide reported inhibition for Nc1ccn([C@@H]2O[C@H](COP(=O)(O)OC(c3cccc(Oc4ccccc4)c3)P(=O)(O)O)[C@@H](O)[C@H]2O)c(=O)n1 (stereo partly drawn) ? Thanks!
98.1%

Could you please provide reported inhibition for CC(=O)N[C@H]1C[C@H](C(OP(=O)(O)OC[C@H]2O[C@@H](n3ccc(N)nc3=O)[C@H](O)[C@@H]2O)P(=O)(O)O)C[C@H]1O (stereo in doubt; 4Ss) ? Thanks!
50.3%

Could you please provide reported inhibition for Nc1ccn([C@@H]2O[C@H](COP(=O)(O)OC(C3CCCC3)P(=O)(O)O)[C@@H](O)[C@H]2O)c(=O)n1 (stereo in doubt; 2s) ? Thanks!
43.2%

Could you please provide reported inhibition for CC(=O)N[C@H]1C[C@H](C(OP(=O)(O)OC[C@H]2O[C@@H](n3ccc(N)nc3=O)[C@H](O)[C@@H]2O)P(=O)(O)O)C[C@H]1O (stereo in doubt; 4Sl) ? Thanks!
9.99%

Could you please provide reported inhibition for CC(=O)NC[C@@H]1CCC(OP(=O)(O)OC[C@H]2O[C@@H](n3ccc(N)nc3=O)[C@H](O)[C@@H]2O)(P(=O)(O)O)[C@H]1OCc1ccccc1 (stereo in doubt; 48l) ? Thanks!
97.5%

----------
ASSAY_NAME: Inhibition of rat alpha-2,6-sialyltransferase
METRIC_NAME: pKi
Keep in mind that pKi stands for -log10 of concentration in molar terms.

Could you please provide reported pKi for CC(=O)N[C@H]1[C@H](Oc2ccccc2)OC(C(OP(=O)(O)OC[C@H]2O[C@@H](n3ccc(N)nc3=O)[C@H](O)[C@@H]2O)P(=O)(O)O)=C[C@@H]1O (stereo partly specified) ? Thanks!
7.54

----------
TARGET_UNDER_TEST: Beta-galactoside alpha-2,6-sialyltransferase 1 (Homo sapiens)
ASSAY_NAME: Inhibition of human recombinant ST6Gal-1 assessed as trisaccharide formation using CMP-Neu5Ac and p-nitrophenyl LacNAc as donar and acceptor at 10 uM by RP-HPLC analysis
Mark class 0 for inhibition values under 60%, and class 1 for everything at or above.

Quick check: does CC(=O)N[C@H]1C[C@H](C(OP(=O)(O)OC[C@H]2O[C@@H](n3ccc(N)nc3=O)[C@H](O)[C@@H]2O)P(=O)(O)O)C[C@H]1OCc1ccccc1 (stereo in doubt; 5Ss) have inhibition greater than or equal to 60%?
class 1

Quick check: does CC(=O)NC[C@@H]1CCC(OP(=O)(O)OC[C@H]2O[C@@H](n3ccc(N)nc3=O)[C@H](O)[C@@H]2O)(P(=O)(O)O)[C@H]1OCc1ccccc1 (stereo in doubt; 48s) have inhibition greater than or equal to 60%?
class 1

Quick check: does CC(=O)N[C@H]1C[C@@H](C(OP(=O)(O)OC[C@H]2O[C@@H](n3ccc(N)nc3=O)[C@H](O)[C@@H]2O)P(=O)(O)O)C[C@H]1OCc1ccccc1 (stereo in doubt; 5Rs) have inhibition greater than or equal to 60%?
class 1

Quick check: does Nc1ccn([C@@H]2O[C@H](COP(=O)(O)OC([C@H]3C[C@@H](O)[C@@H](O)C3)P(=O)(O)O)[C@@H](O)[C@H]2O)c(=O)n1 (stereo in doubt; 3l) have inhibition greater than or equal to 60%?
class 0

Quick check: does Nc1ccn([C@@H]2O[C@H](COP(=O)(O)OC([C@H]3C[C@@H](O)[C@@H](O)C3)P(=O)(O)O)[C@@H](O)[C@H]2O)c(=O)n1 (stereo in doubt; 3s) have inhibition greater than or equal to 60%?
class 0

----------
TARGET_UNDER_TEST: Beta-galactoside alpha-2,6-sialyltransferase 1 (Homo sapiens) (UniProt P15907)
Sequence (P15907 whole entry): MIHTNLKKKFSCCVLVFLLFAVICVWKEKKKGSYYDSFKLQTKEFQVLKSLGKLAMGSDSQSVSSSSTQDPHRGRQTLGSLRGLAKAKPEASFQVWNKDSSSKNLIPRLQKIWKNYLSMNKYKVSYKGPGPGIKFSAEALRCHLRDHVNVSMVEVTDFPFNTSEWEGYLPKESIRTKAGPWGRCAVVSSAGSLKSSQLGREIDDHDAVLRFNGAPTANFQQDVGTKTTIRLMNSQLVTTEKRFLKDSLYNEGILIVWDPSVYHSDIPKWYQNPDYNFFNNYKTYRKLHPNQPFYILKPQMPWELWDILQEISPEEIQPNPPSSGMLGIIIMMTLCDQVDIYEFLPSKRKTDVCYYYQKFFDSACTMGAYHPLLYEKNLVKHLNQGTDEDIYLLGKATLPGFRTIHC
ASSAY_NAME: Ratio of CMP-Neu5Ac Km to compound Ki for human recombinant ST6Gal-1
Provide the reported Ratio of each item.
Number, no unit, nothing else.

Could you please provide reported Ratio for CC(=O)N[C@H]1C[C@H](C(OP(=O)(O)OC[C@H]2O[C@@H](n3ccc(N)nc3=O)[C@H](O)[C@@H]2O)P(=O)(O)O)C[C@H]1OCc1ccccc1 (stereo in doubt; 5Sl) ? Thanks!
95.5

Could you please provide reported Ratio for CC(=O)N[C@H]1C[C@H](C(OP(=O)(O)OC[C@H]2O[C@@H](n3ccc(N)nc3=O)[C@H](O)[C@@H]2O)P(=O)(O)O)C[C@H]1OCc1ccccc1 (stereo in doubt; 5Ss) ? Thanks!
25.6

Could you please provide reported Ratio for Nc1ccn([C@@H]2O[C@H](COP(=O)(O)OC(c3cccc(Oc4ccccc4)c3)P(=O)(O)O)[C@@H](O)[C@H]2O)c(=O)n1 (stereo not given in full) ? Thanks!
2190

Could you please provide reported Ratio for CC(=O)NC[C@@H]1CCC(OP(=O)(O)OC[C@H]2O[C@@H](n3ccc(N)nc3=O)[C@H](O)[C@@H]2O)(P(=O)(O)O)[C@H]1OCc1ccccc1 (stereo in doubt; 48l) ? Thanks!
1490

Could you please provide reported Ratio for CC(=O)N[C@H]1C[C@@H](C(OP(=O)(O)OC[C@H]2O[C@@H](n3ccc(N)nc3=O)[C@H](O)[C@@H]2O)P(=O)(O)O)C[C@H]1OCc1ccccc1 (stereo in doubt; 5Rs) ? Thanks!
27.6

----------
TARGET_UNDER_TEST: Beta-galactoside alpha-2,6-sialyltransferase 1 (Homo sapiens, UniProt P15907)
ASSAY_NAME: Competitive inhibition of human recombinant ST6Gal-1 using CMP-Neu5Ac and p-nitrophenyl LacNAc as donar and acceptor by Lineweaver-Burk double reciprocal plot analysis
METRIC_NAME: log10(Ki) (log10 of the value in nM)
A value of 2 here means Ki of 100 in nM, since values are log10.

Report log10(Ki) under test system Beta-galactoside alpha-2,6-sialyltransferase 1 (Homo sapiens, UniProt P15907) for CC(=O)N[C@H]1C[C@H](C(OP(=O)(O)OC[C@H]2O[C@@H](n3ccc(N)nc3=O)[C@H](O)[C@@H]2O)P(=O)(O)O)C[C@H]1OCc1ccccc1 (stereo in doubt; 5Ss) .
3.21

Report log10(Ki) under test system Beta-galactoside alpha-2,6-sialyltransferase 1 (Homo sapiens, UniProt P15907) for Nc1ccn([C@@H]2O[C@H](COP(=O)(O)OC(C3CCCC3)P(=O)(O)O)[C@@H](O)[C@H]2O)c(=O)n1 (stereo in doubt; 2s) .
3.77

Report log10(Ki) under test system Beta-galactoside alpha-2,6-sialyltransferase 1 (Homo sapiens, UniProt P15907) for CC(=O)N[C@H]1C[C@H](C(OP(=O)(O)OC[C@H]2O[C@@H](n3ccc(N)nc3=O)[C@H](O)[C@@H]2O)P(=O)(O)O)C[C@H]1O (stereo in doubt; 4Ss) .
3.63

Report log10(Ki) under test system Beta-galactoside alpha-2,6-sialyltransferase 1 (Homo sapiens, UniProt P15907) for CC(=O)NC[C@@H]1C[C@@H](C(OP(=O)(O)OC[C@H]2O[C@@H](n3ccc(N)nc3=O)[C@H](O)[C@@H]2O)P(=O)(O)O)C[C@H]1OCc1ccccc1 (some centres undefined) .
2.94

Report log10(Ki) under test system Beta-galactoside alpha-2,6-sialyltransferase 1 (Homo sapiens, UniProt P15907) for CC(=O)N[C@H]1C[C@H](C(OP(=O)(O)OC[C@H]2O[C@@H](n3ccc(N)nc3=O)[C@H](O)[C@@H]2O)P(=O)(O)O)C[C@H]1OCc1ccccc1 (stereo in doubt; 5Sl) .
2.64

Report log10(Ki) under test system Beta-galactoside alpha-2,6-sialyltransferase 1 (Homo sapiens, UniProt P15907) for Nc1ccn([C@@H]2O[C@H](COP(=O)(O)OC(c3cccc(Oc4ccccc4)c3)P(=O)(O)O)[C@@H](O)[C@H]2O)c(=O)n1 (some centres undefined) .
1.28

Report log10(Ki) under test system Beta-galactoside alpha-2,6-sialyltransferase 1 (Homo sapiens, UniProt P15907) for CC(=O)N[C@H]1C[C@@H](C(OP(=O)(O)OC[C@H]2O[C@@H](n3ccc(N)nc3=O)[C@H](O)[C@@H]2O)P(=O)(O)O)C[C@H]1OCc1ccccc1 (stereo in doubt; 5Rs) .
3.18

Report log10(Ki) under test system Beta-galactoside alpha-2,6-sialyltransferase 1 (Homo sapiens, UniProt P15907) for CC(=O)NC[C@@H]1CCC(OP(=O)(O)OC[C@H]2O[C@@H](n3ccc(N)nc3=O)[C@H](O)[C@@H]2O)(P(=O)(O)O)[C@H]1OCc1ccccc1 (stereo in doubt; 48s) .
2.68

Report log10(Ki) under test system Beta-galactoside alpha-2,6-sialyltransferase 1 (Homo sapiens, UniProt P15907) for CC(=O)NC[C@@H]1CCC(OP(=O)(O)OC[C@H]2O[C@@H](n3ccc(N)nc3=O)[C@H](O)[C@@H]2O)(P(=O)(O)O)[C@H]1OCc1ccccc1 (stereo in doubt; 48l) .
1.45

// provenance: ChEMBL document CHEMBL3627711
